// values below are reported log10 of IC50
# experimental system: Urease subunit alpha/Urease subunit beta (Helicobacter pylori (strain ATCC 700392 / 26695) (Campylobacterpylori), UniProt P69996)
# Sequence (P69996 whole entry): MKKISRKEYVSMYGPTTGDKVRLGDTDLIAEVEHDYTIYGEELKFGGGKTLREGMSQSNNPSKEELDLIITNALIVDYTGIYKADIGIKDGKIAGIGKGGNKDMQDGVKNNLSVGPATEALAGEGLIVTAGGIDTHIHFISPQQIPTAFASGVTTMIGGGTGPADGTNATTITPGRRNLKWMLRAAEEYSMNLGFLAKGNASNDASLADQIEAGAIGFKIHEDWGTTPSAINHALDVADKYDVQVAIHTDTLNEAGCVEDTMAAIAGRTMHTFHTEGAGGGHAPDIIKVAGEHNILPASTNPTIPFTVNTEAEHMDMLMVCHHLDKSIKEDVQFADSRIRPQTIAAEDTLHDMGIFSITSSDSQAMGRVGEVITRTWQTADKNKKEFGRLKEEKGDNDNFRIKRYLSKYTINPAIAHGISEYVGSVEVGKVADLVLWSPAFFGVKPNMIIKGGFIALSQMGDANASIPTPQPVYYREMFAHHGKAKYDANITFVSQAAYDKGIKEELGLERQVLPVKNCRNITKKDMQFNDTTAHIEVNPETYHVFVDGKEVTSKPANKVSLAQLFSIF
# Sequence (P14916 whole entry, further chain): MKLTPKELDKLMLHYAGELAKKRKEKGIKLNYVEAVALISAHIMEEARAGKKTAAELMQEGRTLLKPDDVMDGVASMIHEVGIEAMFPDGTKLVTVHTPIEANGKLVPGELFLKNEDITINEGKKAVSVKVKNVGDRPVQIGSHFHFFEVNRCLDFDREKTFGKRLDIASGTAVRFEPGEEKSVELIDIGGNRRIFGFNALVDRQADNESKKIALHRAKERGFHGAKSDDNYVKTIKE
# assay notes: Inhibition of Helicobacter pylori urease
Quick note: numbers are log10 of IC50, with µM as the unit.

In one line, give reported log10 of IC50 of the entry O=C(CN(c1cccc([N+](=O)[O-])c1)S(=O)(=O)c1ccccc1Cl)NO . 1.34

Given O=C(CN(c1cccc([N+](=O)[O-])c1)S(=O)(=O)c1ccc(Cl)cc1)NO , respond with its log10 of IC50. 0.24

Tell me log10 of IC50 reported for O=C(CN(c1cccc([N+](=O)[O-])c1)S(=O)(=O)c1ccccc1)NO 0.38

----------
# experimental system: Urease subunit alpha/Urease subunit beta (Helicobacter pylori (strain ATCC 700392 / 26695) (Campylobacterpylori))
# assay notes: Mixed type inhibition of Helicobacter pyroli urease assessed as dissociation constant for EI complex by microplate reader analysis
# Type: protein-complex assay
readout: Ki (nM)
Give the value, in units of nM, as a plain number.

// Input: O=C(CN(c1cccc([N+](=O)[O-])c1)S(=O)(=O)c1ccc(Br)cc1)NO . Output its Ki only. 65

----------
# experimental system: Urease subunit alpha/Urease subunit beta (Helicobacter pylori (strain ATCC 700392 / 26695) (Campylobacterpylori))
# assay notes: Mixed type inhibition of Helicobacter pyroli urease assessed as dissociation constant for ESI complex by microplate reader analysis
# Assay type: protein-complex assay
readout: pKi
Note on units: pKi is unitless, being -log10 of a concentration expressed in mol/L.

Determine from records and report pKi for O=C(CN(c1cccc([N+](=O)[O-])c1)S(=O)(=O)c1ccc(Br)cc1)NO 5.92

----------
# experimental system: Urease subunit alpha/Urease subunit beta (Helicobacter pylori (strain ATCC 700392 / 26695) (Campylobacterpylori), UniProt P69996)
# assay notes: Binding affinity to Helicobacter pyroli urease assessed as dissociation constant by surface plasmon resonance assay
readout: Kd (nM)
# number only, unit nM dropped from output

// Input: O=C(CN(c1cccc([N+](=O)[O-])c1)S(=O)(=O)c1ccc(Br)cc1)NO . Output its Kd only. 0.34

----------
# experimental system: Urease subunit alpha/Urease subunit beta (Helicobacter pylori (strain ATCC 700392 / 26695) (Campylobacterpylori))
# assay notes: Inhibition of Helicobacter pylori urease
Lab note: compare IC50 with 7 µM, writing TRUE if less and FALSE if equal or more.

Example results:
compound=O=C(CN(c1cccc([N+](=O)[O-])c1)S(=O)(=O)c1cc(F)ccc1F)NO assigned_category=FALSE
compound=Cc1cc(C)c(S(=O)(=O)N(CC(=O)NO)c2cccc([N+](=O)[O-])c2)c(C)c1 assigned_category=FALSE
compound=Cc1ccc(S(=O)(=O)N(CC(=O)NO)c2cccc([N+](=O)[O-])c2)cc1 assigned_category=TRUE
compound=O=C(CN(c1cccc([N+](=O)[O-])c1)S(=O)(=O)c1ccc(F)cc1)NO assigned_category=TRUE
compound=O=C(CN(c1cccc([N+](=O)[O-])c1)S(=O)(=O)c1cc(Cl)ccc1Cl)NO assigned_category=FALSE

// switching to the query compound
Could you please tell me whether IC50 recorded for O=C(CN(c1cccc([N+](=O)[O-])c1)S(=O)(=O)c1ccc(C(F)(F)F)cc1)NO is less than 7 µM? FALSE
